Origin of the recorded values: ChEMBL document CHEMBL5143688

- Assay overview: Cytotoxicity against HEK293T cells assessed as reduction in cell viability measured after 24 hrs by CCK8 assay
- Assay type: toxicity, cell-based, HEK-293T
- Test parameters: human
Recorded endpoint: CC50 at 24 h

CC(C)CN(C[C@@H](O)[C@H](Cc1ccccc1)NC(=O)c1ccc(O)cc1O)S(=O)(=O)c1ccc([N+](=O)[O-])cc1 > 100 µM
CC(C)CN(C[C@@H](O)[C@H](Cc1ccccc1)NC(=O)c1ccc(O)cc1O)S(=O)(=O)c1ccc(F)cc1 > 100 µM
CC(C)CN(C[C@@H](O)[C@H](Cc1ccccc1)NC(=O)c1ccc(O)c(O)c1)S(=O)(=O)c1ccc([N+](=O)[O-])cc1 35.6 µM
CC(C)CN(C[C@@H](O)[C@H](Cc1ccccc1)NC(=O)c1cc(O)c(O)c(O)c1)S(=O)(=O)c1ccc(C(F)(F)F)cc1 > 100 µM

Q: Could you please provide reported CC50 at 24 h for COc1cc(C(=O)N[C@@H](Cc2ccccc2)[C@H](O)CN(CC(C)C)S(=O)(=O)c2ccc([N+](=O)[O-])cc2)cc(OC)c1O ? Thanks!
A: > 100 µM
